- Test system: RXF 393 renal
- Procedure summary: NCI-60 one-dose screen, 48 h
- Experimental parameters: 10 µM unless noted
About 83,000 compounds went through this panel and 20% of them were active in at least one assay; those are over-represented in the sample as a whole. Activity calls are given as the source filed them. The calls were made as follows: active = growth percent below 10; inactive = the rest.
Labels: active, inactive

[
  {
    "Compound": "CCN(CC)c1ccc2cc(NC(=O)OCCNC(=O)CCNC(=O)[C@H](CC(C)C)NC(=O)C(C)(C)NC(=O)C(C)(C)NC(=O)[C@H](CC(C)C)NC(=O)CCNC(=O)C(C)(C)NC(=O)[C@H](CC(C)C)NC(=O)CCNC(=O)[C@@](C)(CC)NC(=O)[C@H](C)NC(=O)CCNC(=O)C(C)(C)NC(=O)[C@H](C)NC(=O)[C@@H]3CCCN3C(=O)[C@@](C)(CC)NC(=O)[C@H](Cc3ccccc3)NC(=O)C3CCCN3C(=O)C(C)(C)NC(=O)C3CCCN3C(=O)C(C)(C)NC(C)=O)c(=O)oc2c1 (some centres not stated)",
    "System": "RXF 393 renal",
    "Class name": "active"
  },
  {
    "Compound": "N#C/C(C(=O)c1ccccc1)=C1/C(=O)Nc2ccc(F)cc21",
    "System": "RXF 393 renal",
    "Class name": "inactive"
  },
  {
    "Compound": "Cc1c(Cn2cc(COc3ccc(Br)cc3)nn2)c(C)c(Cn2cc(COc3ccc(Br)cc3)nn2)c(C)c1Cn1cc(COc2ccc(Br)cc2)nn1",
    "System": "RXF 393 renal",
    "Class name": "inactive"
  },
  {
    "Compound": "COc1cc(-c2nc(SCCC(C)C)nc(Nc3ccccc3)c2C#N)cc(OC)c1OC",
    "System": "RXF 393 renal",
    "Class name": "inactive"
  },
  {
    "Compound": "Cn1cc(-c2nnc(-c3cn(C)c4ncc(Br)cc34)s2)c2cc(Br)ccc21",
    "System": "RXF 393 renal",
    "Class name": "inactive"
  },
  {
    "Compound": "Cc1cc(C)c(S(=O)(=O)/N=c2/n(-c3ccccc3)nc3n2CCN3C2=NCCN2)c(C)c1",
    "System": "RXF 393 renal",
    "Class name": "inactive"
  },
  {
    "Compound": "CC(C)=CCC[C@](C)(O)[C@H]1CC[C@]2(C)[C@@H]1CC[C@@H]1[C@@]3(C)CC[C@H](OC(=O)CCC(=O)O)C(C)(C)[C@@H]3CC[C@]12C",
    "System": "RXF 393 renal",
    "Class name": "inactive"
  },
  {
    "Compound": "Nc1cc(Cl)cc2cccnc12",
    "System": "RXF 393 renal",
    "Class name": "inactive"
  },
  {
    "Compound": "COc1c(C(C)=O)c(OCCCCOc2c(C(C)=O)c(OC)c3ccoc3c2OC)c(OC)c2occc12",
    "System": "RXF 393 renal",
    "Class name": "inactive"
  },
  {
    "Compound": "Oc1c(CNCCNCc2cc(Cl)cc(Cc3ccccc3)c2O)cc(Cl)cc1Cc1ccccc1",
    "System": "RXF 393 renal",
    "Class name": "inactive"
  },
  {
    "Compound": "CC(C)[N+](C)(C)CC(O)COc1cccc2ccccc12 (configuration not stated)",
    "System": "RXF 393 renal",
    "Class name": "inactive"
  },
  {
    "Compound": "Cc1cc(NN=C(c2ccc(O)cc2)c2ccc(O)cc2)c([N+](=O)[O-])cc1[N+](=O)[O-]",
    "System": "RXF 393 renal",
    "Class name": "inactive"
  },
  {
    "Compound": "O=C(Nc1ccc(F)cc1)c1ccccc1",
    "System": "RXF 393 renal",
    "Class name": "inactive"
  },
  {
    "Compound": "C=C(C)[C@@H]1CC[C@]2(C(=O)NCCCCCCN(CCCN)CCCN)CC[C@]3(C)[C@H](CC[C@@H]4[C@@]5(C)CC[C@H](OCCCN)C(C)(C)[C@@H]5CC[C@]43C)[C@@H]12",
    "System": "RXF 393 renal",
    "Class name": "inactive"
  },
  {
    "Compound": "O=C(O)CC1CCCCC1c1ccccc1 (configuration not stated)",
    "System": "RXF 393 renal",
    "Class name": "inactive"
  },
  {
    "Compound": "COc1ccc(/C=C(/C2=NCCN2)n2ccc3ccccc32)cc1",
    "System": "RXF 393 renal",
    "Class name": "inactive"
  },
  {
    "Compound": "CCOc1cccc2c(NC(C)CCCN(CC)CC)c(C)cnc12 (configuration not stated)",
    "System": "RXF 393 renal",
    "Class name": "inactive"
  }
]
